- system: Lethal factor (Bacillus anthracis)
- experimentalProtocol: Lethal factor protease inhibitors, Bacillus anthracis, multiplex microsphere cleavage assay, validation set (AID 588461)
- conditionNotes: flow cytometry, at 10 µM, stronger effect = higher value
Calls of active or inactive are those of the source. The rule behind the calls is not given here.
observationType: inhibition

O=C1C(Cc2ccccc2)NC(=S)N1c1ccccc1 (configuration not stated) ... -7.8% (inactive)
CN(C)c1ccc(C(CN)c2c[nH]c3ccccc23)cc1 (configuration not stated) ... -3.4% (inactive)
CC[C@H](CO)NCCN[C@H](CC)CO ... -10% (inactive)
C=CCOC(=O)C1=C(C)NC(=O)NC1/C=C/c1ccccc1OC (configuration not stated) ... -0.8% (inactive)
O=C(O)CCn1c(=S)n(CCC(=O)O)c2ccccc21 ... 3.1% (inactive)

Exam item: Value lookup for inhibition; key = CCc1nc(N)nc(N)c1-c1ccc(Cl)cc1
Marked response: -2.6% (inactive)

Exam item: Let us now turn to Oc1ccc(Cl)cc1Cc1cc(Cl)ccc1O
Marked response: 7.7% (inactive)

Exam item: Let us now turn to [N-]=[N+]=CC(=O)OC[C@H](N)C(=O)O
Marked response: 2.3% (inactive)

* * *

- experimentalProtocol: modulators of MEP2-GFP levels in yeast, primary screen, S. cerevisiae, multiplex flow cytometry (AID 1867);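 note: median GFP channel fluorescence of barcode-gated MEP2-GFP cells measured by flow cytometry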
- conditionNotes: S. cerevisiae MEP2-GFP strain, 3 h, at 10 µM, stronger effect = higher value
Inconclusive results are not listed. The source made the active and inactive calls.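 The calls were made as follows: active = GFP response, as percent of the DMSO control, above the screen-wide mean plus 3 SD, about 139; inconclusive = no response measured because the compound's own fluorescence interfered; inactive = the rest.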
observationType: GFP response vs DMSO

Use the examples below as a reference point.
O=c1[nH]c2ccccc2n1CCCN1CCC(n2c(=O)[nH]c3cc(Cl)ccc32)CC1 ... 109% (inactive)
Nc1ccncc1 ... 119% (inactive)
O=C(O)CCCc1ccc(N(CCCl)CCCl)cc1 ... 103% (inactive)

Exam item: Value lookup for GFP response vs DMSO; key = CC(C)C(=O)Nc1ccc(S(=O)(=O)N2CC3CC(C2)c2cccc(=O)n2C3)cc1 (stereo unspecified)
Marked response: 95.2% (inactive)

Exam item: Let us now turn to Clc1ccc(C2NCCc3[nH]cnc32)cc1 (stereo unspecified)
Marked response: 98.3% (inactive)

Exam item: Let us now turn to O=c1c2ccccc2[se]n1-c1ccccc1
Marked response: 94.6% (inactive)

* * *

Measured percent of DMSO control GFP, listed per entry for reference.
- experimentalProtocol: yeast TOR pathway RPL19A-GFP modulators, primary screen, cell-based, S. cerevisiae, multiplex flow cytometry (AID 1862);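 note: lower values mimic rapamycin by blocking the RPL19A rise seen in DMSO cells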
- conditionNotes: S. cerevisiae RPL19A-GFP strain, flow cytometry fluorescence, 3 h; at 10 µM; stronger effect = lower value
Records with an inconclusive call do not appear.
// return numeric value only (unit: %, not printed)

C[N+]1(C)CCOC(O)(c2ccc(-c3ccc(C4(O)C[N+](C)(C)CCO4)cc3)cc2)C1 (configuration not stated) ... 94.6
OC(c1ccccc1)(c1ccccc1)C1CCNCC1 ... 99.4
Cn1c(O)c(C=NCCc2c[nH]c3ccccc23)c(=O)n(C)c1=O ... 100
O=C1C(=O)c2ccccc2-c2ccccc21 ... 73.2
CCN(CC)CCOC(=O)C(O)(c1ccccc1)c1ccccc1 ... 102

Exam item: Value lookup for percent of DMSO control GFP; key = COP(=O)(OC)C(O)C(Cl)(Cl)Cl (configuration not stated)
Marked response: 103

Exam item: Let us now turn to Fc1ccc(C(OCCN2CCCC2)c2ccc(Br)cc2)cc1 (configuration not stated)
Marked response: 98.8

Exam item: Let us now turn to Cc1ccc2c(c1)C1CN(C)CCC1N2C(=O)Nc1cccc(Cl)c1 (configuration not stated)
Marked response: 99.5

Exam item: Let us now turn to Cc1cc(Cl)ccc1OC(C)C(=O)O (configuration not stated)
Marked response: 97.9

Exam item: Let us now turn to COc1ccc(CN2CC3CC(C2)c2cccc(=O)n2C3)cc1OC (configuration not stated)
Marked response: 105

Exam item: Let us now turn to CC1CCC[C@H](O)CCCCCc2cc(O)cc(O)c2C(=O)O1 (some centres not stated)
Marked response: 102

Exam item: Let us now turn to COc1cccc(Oc2c(C)oc3cc(OC(=O)N(C)C)ccc3c2=O)c1
Marked response: 102
